- Tested on: washed platelets
- Experiment: PAR4 agonist peptide induced platelet aggregation assay (washed platelets)
- Format: cell-based, human
- Condition Label: agonist activity
Give ED50 (μM) [Platelet Aggregation] for every item shown.
API: value field is a number in µM; no unit string.

query: Give washed platelets ED50 (μM) [Platelet Aggregation] for the following compound: COc1cc(OCc2csc(-c3ccc(F)cc3)n2)c2cc(-c3cn4nc(OC)sc4n3)oc2c1
result: 0.63

query: Give washed platelets ED50 (μM) [Platelet Aggregation] for the following compound: COc1cc(OCc2csc(-c3ccccc3)n2)c2cc(-c3cn4nc(OC)sc4n3)oc2c1
result: 0.86

query: Give washed platelets ED50 (μM) [Platelet Aggregation] for the following compound: COc1cc(OCc2csc(-c3ccncc3)n2)c2cc(-c3cn4nc(OC)sc4n3)oc2c1
result: 0.76

query: Give washed platelets ED50 (μM) [Platelet Aggregation] for the following compound: COc1cc(OCc2csc(-c3ccccc3F)n2)c2cc(-c3cn4nc(OC)sc4n3)oc2c1
result: 1.0

query: Give washed platelets ED50 (μM) [Platelet Aggregation] for the following compound: COc1cc(OCc2csc(-c3cnccn3)n2)c2cc(-c3cn4nc(OC)sc4n3)oc2c1
result: 0.61

query: Give washed platelets ED50 (μM) [Platelet Aggregation] for the following compound: COc1cc(OCc2csc(-c3cccc(C(F)(F)F)c3)n2)c2cc(-c3cn4nc(OC)sc4n3)oc2c1
result: 106

query: Give washed platelets ED50 (μM) [Platelet Aggregation] for the following compound: COc1cc(OCc2csc(N3CCCCC3)n2)c2cc(-c3cn4nc(OC)sc4n3)oc2c1
result: 2.4

query: Give washed platelets ED50 (μM) [Platelet Aggregation] for the following compound: COc1cc(OCc2csc(-c3cccc(F)c3)n2)c2cc(-c3cn4nc(OC)sc4n3)oc2c1
result: 52

###

- Target Entity: PAR4 (Homo sapiens (Human))
- Sequence (Q96RI0 18-385): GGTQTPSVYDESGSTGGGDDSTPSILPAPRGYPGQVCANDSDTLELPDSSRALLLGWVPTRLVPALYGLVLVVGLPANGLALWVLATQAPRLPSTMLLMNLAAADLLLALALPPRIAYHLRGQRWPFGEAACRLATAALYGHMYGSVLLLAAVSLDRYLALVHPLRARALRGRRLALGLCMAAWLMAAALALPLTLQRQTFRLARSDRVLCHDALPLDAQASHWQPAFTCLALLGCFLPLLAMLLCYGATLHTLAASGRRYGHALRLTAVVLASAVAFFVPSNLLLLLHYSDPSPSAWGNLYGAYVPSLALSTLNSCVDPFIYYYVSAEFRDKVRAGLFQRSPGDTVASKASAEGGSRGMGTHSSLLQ
- Experiment: Gamma thrombin induced platelet aggregation assay (PRP assay)
- Condition Label: platelet rich plasma
Criterion: IC50 strictly under 50 nM. Met: yes (1). Not met: no (0).

query: Just wondering, is IC50 of COc1nn2cc(-c3cc4c(OCc5csc(-c6ccccc6)n5)cc(F)cc4o3)nc2s1 below 50 nM?
result: yes (1)

query: Just wondering, is IC50 of COc1cc(OCc2cn(-c3ccccc3)nn2)c2cc(-c3cn4nc(OC)sc4n3)oc2c1 below 50 nM?
result: no (0)

query: Just wondering, is IC50 of COc1ccc(-c2nc(COc3cc(OC)cc4oc(-c5cn6nc(OC)sc6n5)cc34)cs2)cc1 below 50 nM?
result: yes (1)

query: Just wondering, is IC50 of COc1cc(OCc2csc(-c3cc(C)on3)n2)c2cc(-c3cn4nc(OC)sc4n3)oc2c1 below 50 nM?
result: yes (1)

query: Just wondering, is IC50 of COc1cc(OCc2cnnn2-c2ccccc2)c2cc(-c3cn4nc(OC)sc4n3)oc2c1 below 50 nM?
result: no (0)

###

Give pEC50 for every item shown.
- Target Entity: UniProtKB Q96RI0
- Experiment: FLIPR assay in PAR4-expressing HEK293 cells, test for antagonist activity
- Condition Label: H-Ala-Phe(4-F)-Pro-Gly-Trp-Leu-Val-Lys-Asn-Gly-NH2-induced calcium mobilization
Schema: pEC50 number; meaning minus log10 of the concentration expressed in molar units.

query: State, in one line, measured pEC50 of COc1cc(OCc2csc(C(F)(F)F)n2)c2cc(-c3cn4nc(OC)sc4n3)oc2c1 [Example 2]
result: 9.38

query: State, in one line, measured pEC50 of COc1ccc(-c2nc(COc3cc(OC)cc4oc(-c5cn6nc(OC)sc6n5)cc34)cs2)cc1 [Example 18]
result: 8.60

query: State, in one line, measured pEC50 of COc1nn2cc(-c3cc4c(OCc5csc(-c6ccccc6)n5)cc(F)cc4o3)nc2s1 [Example 36]
result: 9.00

query: State, in one line, measured pEC50 of COc1cc(OCc2cn(-c3ccccc3)nn2)c2cc(-c3cn4nc(OC)sc4n3)oc2c1 [Example 9]
result: 8.28

query: State, in one line, measured pEC50 of COc1cc(OCc2cnnn2-c2ccccc2)c2cc(-c3cn4nc(OC)sc4n3)oc2c1 [Example 10]
result: 8.46

query: State, in one line, measured pEC50 of COc1cc(OCc2csc(-c3cc(C)on3)n2)c2cc(-c3cn4nc(OC)sc4n3)oc2c1 [Example 33]
result: 8.77

###

- Test system: washed platelets
- Experiment: PAR4 agonist peptide induced platelet aggregation assay (washed platelets)
- Format: cell-based, human
- Condition Label: agonist activity
Give ED50 (μM) [Platelet Aggregation] for every item shown.
API: value field is a number in µM; no unit string.

query: State, in one line, measured ED50 (μM) [Platelet Aggregation] of CCc1nc(COc2cc(OC)cc3oc(-c4cn5nc(OC)sc5n4)cc23)cs1 [Example 23]
result: 0.79

query: State, in one line, measured ED50 (μM) [Platelet Aggregation] of COc1cc(OCc2csc(-c3ccc(F)cc3F)n2)c2cc(-c3cn4nc(OC)sc4n3)oc2c1 [Example 24]
result: 0.69

query: State, in one line, measured ED50 (μM) [Platelet Aggregation] of COc1cc(OCc2csc(C)n2)c2cc(-c3cn4nc(OC)sc4n3)oc2c1 [Example 1]
result: 13

query: State, in one line, measured ED50 (μM) [Platelet Aggregation] of COc1cc(OCc2csc(-c3cc(C)on3)n2)c2cc(-c3cn4nc(OC)sc4n3)oc2c1 [Example 33]
result: 1.2

###

- Test system: washed platelets
- Experiment: PAR4 agonist peptide induced platelet aggregation assay (washed platelets)
- Type: cell-based, human
- Condition Label: agonist activity
Give ED50 (μM) [Platelet Aggregation] for every item shown.
API: value field is a number in µM; no unit string.

query: State, in one line, measured ED50 (μM) [Platelet Aggregation] of COc1cc(OCc2csc(N3CCN(C)CC3)n2)c2cc(-c3cn4nc(OC)sc4n3)oc2c1
result: 1.2

query: State, in one line, measured ED50 (μM) [Platelet Aggregation] of COc1cc(OCc2csc(-c3cccc(C)c3)n2)c2cc(-c3cn4nc(OC)sc4n3)oc2c1
result: 0.97

query: State, in one line, measured ED50 (μM) [Platelet Aggregation] of COc1cc(OCc2nc(-c3ccccc3)sc2C)c2cc(-c3cn4nc(OC)sc4n3)oc2c1
result: 0.67

query: State, in one line, measured ED50 (μM) [Platelet Aggregation] of COc1cc(OCc2csc(-c3ccc(Cl)cc3)n2)c2cc(-c3cn4nc(OC)sc4n3)oc2c1
result: 1.7

query: State, in one line, measured ED50 (μM) [Platelet Aggregation] of COc1cc(OCc2csc(-c3ccccc3Cl)n2)c2cc(-c3cn4nc(OC)sc4n3)oc2c1
result: 37

query: State, in one line, measured ED50 (μM) [Platelet Aggregation] of COc1cc(OCc2csc(C3CCOCC3)n2)c2cc(-c3cn4nc(OC)sc4n3)oc2c1
result: 12.3

query: State, in one line, measured ED50 (μM) [Platelet Aggregation] of COCCOCc1nc(COc2cc(OC)cc3oc(-c4cn5nc(OC)sc5n4)cc23)cs1
result: 1.1

query: State, in one line, measured ED50 (μM) [Platelet Aggregation] of COc1cc(OCc2csc(C3CCCCC3)n2)c2cc(-c3cn4nc(OC)sc4n3)oc2c1
result: 4.1

query: State, in one line, measured ED50 (μM) [Platelet Aggregation] of COc1cc(OCc2csc(N3CCC(F)(F)CC3)n2)c2cc(-c3cn4nc(OC)sc4n3)oc2c1
result: 0.63
